# Test system: DU145-TXR cells
# protocol.text: MTT viability assay, reversal of MDR (re-sensitization to paclitaxel) in P-gp overexpressing DU145-TXR cells
# Format: cell-based, human
# condition.parameters: Homo sapiens, 15 µM Compound Alone; DU145-TXR; mean of 8 samples; read-out: % Survival, mean
Give viability at 15 µM for every item shown.
Numbers only, in %.

See these solved cases before continuing.
O=S(=O)(CCSc1nnc(-c2ccccc2)c2ccccc12)c1ccccc1
89.2
O=C(c1nc(-c2ccc3cc[nH]c3c2)no1)N1CCN(c2nsc3ccccc23)CC1
91.3
O=C(NCc1cccc(F)c1)c1nnn2c1Sc1c(C(=O)NCc3cccc(F)c3)nnn1CC2
106
O=C(c1nc(-c2ccccn2)no1)N1CCN(c2nsc3ccccc23)CC1
98.6
O=C(c1cc2ccccc2[nH]1)N1CCN(S(=O)(=O)c2cccc3nonc23)CC1
84.2

Go through the list and state viability at 15 µM for each entry.
1. COc1cc2c(cc1OC)CN(CCc1ccc(NC(=O)c3cc(OC)c(OC)cc3NC(=O)c3cnc4ccccc4c3)cc1)CC2 [Tariquidar, reference compound]
2. Cc1onc(-c2ccccc2)c1-c1nnc(Cn2cnc3ccccc3c2=O)o1
3. Cn1cnnc1SCc1c(C(=O)O)nnn1-c1nonc1N
4. Nc1nonc1-n1nnc(C(=O)N/N=C/c2c3ccccc3cc3ccccc23)c1COc1ccc(F)cc1
5. Cc1ccc(-c2noc(-c3cn(Cc4ccc(NS(=O)(=O)c5ccccc5F)cc4)cn3)n2)cc1

Response:
101
102
107
93.6
76.4

Please give viability at 15 µM, item by item, for the list that follows.
1. CCN1CCN(Cc2c(C(=O)N/N=C3/C(=O)N(C)c4ccccc43)nnn2-c2nonc2N)CC1
2. COc1cccc(N2CCN(c3ccc4nnc(CCC(=O)Nc5ccc(F)c(F)c5)n4n3)CC2)c1

Response:
99.3
112
